meta.source: paper PMC7034854

- tested-system: sodium iodide symporter (zNIS) (Danio rerio)
- Construct: N-terminally HA-tagged NIS (601 residues, NP_001082860.1) expressed in HeLa cells
- Sequence (A0AC58G7K6 1-601): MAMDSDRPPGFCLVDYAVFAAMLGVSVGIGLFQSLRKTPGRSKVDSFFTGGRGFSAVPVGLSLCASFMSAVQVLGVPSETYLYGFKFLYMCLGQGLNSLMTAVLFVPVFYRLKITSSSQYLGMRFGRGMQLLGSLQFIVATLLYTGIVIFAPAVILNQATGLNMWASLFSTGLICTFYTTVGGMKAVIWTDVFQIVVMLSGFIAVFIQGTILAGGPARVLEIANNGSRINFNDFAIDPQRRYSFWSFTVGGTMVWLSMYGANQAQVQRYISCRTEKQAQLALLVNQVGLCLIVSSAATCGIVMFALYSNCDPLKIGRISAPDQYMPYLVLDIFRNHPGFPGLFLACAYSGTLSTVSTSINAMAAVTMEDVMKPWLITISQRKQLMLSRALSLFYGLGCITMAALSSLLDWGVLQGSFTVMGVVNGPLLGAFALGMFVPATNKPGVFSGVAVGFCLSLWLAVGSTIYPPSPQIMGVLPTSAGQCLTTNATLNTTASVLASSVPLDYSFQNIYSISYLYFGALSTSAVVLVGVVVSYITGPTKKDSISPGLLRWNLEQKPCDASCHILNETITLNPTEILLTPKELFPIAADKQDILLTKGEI
- assay-explanation: […]- uptake inhibition in transduced HeLa cells
metric-name: pIC50
Numbers only, as −log10 of the molar value.

Inquiry: Could you tell me which pIC50 is on file for [O-][Cl+3]([O-])([O-])O [perchlorate] ?
Reply text: 7.09

* * *

- tested-system: sodium iodide symporter (hNIS) (Homo sapiens, UniProt Q92911)
- Construct: N-terminally HA-tagged NIS (643 residues) expressed in HeLa cells
- Sequence (Q92911 whole entry): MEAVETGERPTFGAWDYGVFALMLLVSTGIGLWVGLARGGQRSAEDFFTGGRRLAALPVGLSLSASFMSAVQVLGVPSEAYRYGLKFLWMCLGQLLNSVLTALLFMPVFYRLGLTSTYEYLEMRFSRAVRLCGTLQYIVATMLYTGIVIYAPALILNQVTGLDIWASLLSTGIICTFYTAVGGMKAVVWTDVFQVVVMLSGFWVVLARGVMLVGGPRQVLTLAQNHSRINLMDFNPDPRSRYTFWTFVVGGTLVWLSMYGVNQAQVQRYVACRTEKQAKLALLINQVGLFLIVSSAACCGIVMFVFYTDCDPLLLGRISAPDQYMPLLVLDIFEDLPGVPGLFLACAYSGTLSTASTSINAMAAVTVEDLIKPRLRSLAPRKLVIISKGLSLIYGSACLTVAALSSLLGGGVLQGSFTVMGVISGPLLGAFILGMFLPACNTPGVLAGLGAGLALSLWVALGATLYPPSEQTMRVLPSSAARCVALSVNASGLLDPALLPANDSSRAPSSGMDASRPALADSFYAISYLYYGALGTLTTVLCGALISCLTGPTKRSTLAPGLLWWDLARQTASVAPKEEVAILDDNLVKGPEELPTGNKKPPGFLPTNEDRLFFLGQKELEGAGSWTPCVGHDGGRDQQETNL
- assay-explanation: […]- uptake inhibition in transduced HeLa cells
metric-name: IC50 (nM)
Give bare numbers, in nM.

Inquiry: Report IC50 for [O-][Cl+3]([O-])([O-])O [perchlorate] please.
Reply text: 1570

* * *

- tested-system: sodium iodide symporter (wNIS) (Balaenoptera acutorostrata, UniProt A0A384B8D1)
- Construct: N-terminally HA-tagged NIS (642 residues, XP_007195539.1) expressed in HeLa cells
- Sequence (A0A384B8D1 1-642): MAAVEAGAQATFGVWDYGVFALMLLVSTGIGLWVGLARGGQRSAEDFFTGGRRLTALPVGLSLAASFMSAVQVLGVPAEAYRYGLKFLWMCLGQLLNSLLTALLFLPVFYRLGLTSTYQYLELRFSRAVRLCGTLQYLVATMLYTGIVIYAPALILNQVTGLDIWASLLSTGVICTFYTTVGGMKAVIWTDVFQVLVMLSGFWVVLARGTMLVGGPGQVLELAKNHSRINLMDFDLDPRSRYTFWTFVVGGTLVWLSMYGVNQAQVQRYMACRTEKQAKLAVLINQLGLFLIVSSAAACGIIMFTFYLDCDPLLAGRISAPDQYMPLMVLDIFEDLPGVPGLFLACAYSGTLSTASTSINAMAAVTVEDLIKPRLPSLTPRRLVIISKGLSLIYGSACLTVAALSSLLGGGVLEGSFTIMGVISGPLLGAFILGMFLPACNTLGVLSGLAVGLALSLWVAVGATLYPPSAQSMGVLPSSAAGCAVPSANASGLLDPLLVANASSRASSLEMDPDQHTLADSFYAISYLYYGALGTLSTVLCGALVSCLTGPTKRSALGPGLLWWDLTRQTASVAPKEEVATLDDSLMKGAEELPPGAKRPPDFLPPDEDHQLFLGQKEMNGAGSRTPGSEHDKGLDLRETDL
- assay-explanation: […]- uptake inhibition in transduced HeLa cells
metric-name: IC50 (µM)
Give bare numbers, in µM.

Inquiry: What IC50 appears in the records for this compound with sodium iodide symporter (wNIS) (Balaenoptera acutorostrata, UniProt A0A384B8D1)? [O-][Cl+3]([O-])([O-])O [perchlorate]
Reply text: 4.6
